Molecular target: Cytochrome P450 2D6 (Homo sapiens) (UniProt P10635)
Sequence (P10635 whole entry, looked up): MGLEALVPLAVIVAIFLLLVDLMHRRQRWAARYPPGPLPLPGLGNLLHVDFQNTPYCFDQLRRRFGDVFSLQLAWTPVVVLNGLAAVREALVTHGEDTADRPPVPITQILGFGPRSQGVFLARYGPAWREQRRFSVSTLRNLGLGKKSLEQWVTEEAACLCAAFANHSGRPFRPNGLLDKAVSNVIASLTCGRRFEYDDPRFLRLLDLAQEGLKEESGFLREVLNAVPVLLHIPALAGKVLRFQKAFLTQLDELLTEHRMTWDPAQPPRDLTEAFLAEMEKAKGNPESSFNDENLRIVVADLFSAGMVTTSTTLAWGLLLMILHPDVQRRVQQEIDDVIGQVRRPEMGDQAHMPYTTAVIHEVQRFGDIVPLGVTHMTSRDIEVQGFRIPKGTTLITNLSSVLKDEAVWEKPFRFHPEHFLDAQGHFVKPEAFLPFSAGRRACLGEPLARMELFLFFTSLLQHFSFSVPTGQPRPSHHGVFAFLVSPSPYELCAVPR
Assay: Cytochrome panel assay with activity outcomes
Conditions: recombinant CYP, pro-luciferin dealkylation, luminescence, p450-cyp2d6; series mostly up to 57.1 µM
The campaign covered roughly 16,000 compounds. About 2,600 (16%) were called active. About 20% were inconclusive and are not listed. Calls come from the whole dose curve; as a rule, active = well fitted curve in the direction sought with a large enough effect; inconclusive = small, poorly fitted or top-dose-only effect, or effect the other way; inactive = no such curve, though single readings can be large or run the other way. Only a sample is shown.
Classes used: T = active, F = inactive

1) CC(=O)c1c(C(C)=O)c(C)n(NC(=O)c2ccncc2)c1C ... F
2) COc1ccccc1CNc1ncnc2ccc(-c3cccnc3)cc12 ... T
3) Cc1cccc(NC(=O)C2(c3ccccc3)CC2(Cl)Cl)c1 (stereo not drawn) ... T
